method: Oral bioavailability in rat at 10 mg/kg measured after 24 hrs by LC-MS/MS analysis
Format: ADME, organism-based
condition-label: in vivo

compound-string	bioavailability [%]
COc1ccc(NC(=O)N2CCc3c(sc(NC(=O)c4cnn(C)c4)c3C#N)C2)cc1	0.75

====

Tested on: 143B
method: Antimigratory activity against human 143B cells assessed as reduction in cell migration measured after 12 hrs by wound healing assay
Assay type: functional, cell-based
pIC50: −log10 of the molar value.
The threshold is inclusive: pIC50 of exactly 6 counts as Yes; values below receive No.

compound-string	class-assignment
CN(CC(=O)N(Cc1ccc(C2CCCCC2)cc1)c1ccc(C(=O)O)c(O)c1)S(=O)(=O)c1c(F)c(F)c(F)c(F)c1F	No
Cc1ccc(C(=O)N2CCc3c(sc(NC(=O)c4cnn(C)c4)c3C#N)C2)o1	Yes
COc1ncccc1NC(=O)N1CCc2c(sc(NC(=O)c3cnn(C)c3)c2C#N)C1	Yes
COc1ccc(NC(=O)N2CCc3c(sc(NC(=O)c4cnn(C)c4)c3C#N)C2)cc1	Yes
